// data source = ChEMBL document CHEMBL1131884

Entries annotated with measured log10 ED50
# Test system: Mus musculus
# assay.method.text: In vivo antibacterial activity against MRSA 76 virginia strain at the dose ~1 *10e7 cfu in 5 percent hog gastric mucin along with antibiotic by sc administration at 0 and +4 hrs in mice
# Format: functional
Use the decimal logarithm of ED50 (mg kg-1 dose-1).

| molecule | recorded.value |
| --- | --- |
| C[C@@H](O)[C@H]1C(=O)N2C(C(=O)[O-])=C(c3ccc4c(c3)-c3ccc(C[N+]56CC[N+](CC(N)=O)(CC5)CC6)cc3C4=O)[C@H](C)[C@H]12.[Cl-] | 0.00 |
| C[C@@H](O)[C@H]1C(=O)N2C(C(=O)[O-])=C(c3ccc4c(c3)-c3ccc(C[n+]5ccn(C)c5)cc3C4=O)C[C@H]12 | -0.04 |
| CN[C@H](CC(C)C)C(=O)N[C@H]1C(=O)N[C@@H](CC(N)=O)C(=O)N[C@H]2C(=O)N[C@H]3C(=O)N[C@H](C(=O)N[C@H](C(=O)O)c4cc(O)cc(O)c4-c4cc3ccc4O)[C@H](O)c3ccc(c(Cl)c3)Oc3cc2cc(c3O[C@@H]2O[C@H](CO)[C@@H](O)[C@H](O)[C@H]2O[C@H]2C[C@](C)(N)[C@H](O)[C@H](C)O2)Oc2ccc(cc2Cl)[C@H]1O | 0.37 |
| C[C@@H](O)[C@H]1C(=O)N2C(C(=O)[O-])=C(c3ccc4c(c3)-c3ccc(C[N+]56CC[N+](CC(N)=O)(CC5)CC6)cc3C4=O)C[C@H]12.[Cl-] | -0.30 |

// next entry
(Q) Which log10 ED50 value is on record for C[C@@H](O)[C@H]1C(=O)N2C(C(=O)O)=C(SCCNC=N)C[C@H]12 [IMIPENEM ANHYDROUS] ?
(A) 1.20

====

Entries annotated with measured AUC
# assay.method.text: AUC (area under curve) evaluated in Rhesus monkeys at the dose of 10 mg/kg by iv bolus injection
# Format: ADME, organism-based, Plasma
# Parameters: dose 10 mg/kg, route intravenous
# measurement.conditions: cercopithecidae, plasma, read-out: AUC
Could you give me the number in ng·h/mL? Just the number is fine.

| chem.smiles | unit.abbreviation | AUC |
| --- | --- | --- |
| C[C@@H](O)[C@H]1C(=O)N2C(C(=O)[O-])=C(c3ccc4c(c3)-c3ccc(C[n+]5ccn(C)c5)cc3C4=O)C[C@H]12 | ng·h/mL | 30400 |

// next entry
(Q) Which AUC value is on record for `C[C@@H](O)[C@H]1C(=O)N2C(C(=O)[O-])=C(c3ccc4c(c3)-c3ccc(C[N+]56CC[N+](CC(N)=O)(CC5)CC6)cc3C4=O)[C@H](C)[C@H]12.[Cl-]` ?
(A) 56400

====

# measurement.target: MecA (Staphylococcus aureus, UniProt Q7DHH4)
# Sequence (Q7DHH4 whole entry): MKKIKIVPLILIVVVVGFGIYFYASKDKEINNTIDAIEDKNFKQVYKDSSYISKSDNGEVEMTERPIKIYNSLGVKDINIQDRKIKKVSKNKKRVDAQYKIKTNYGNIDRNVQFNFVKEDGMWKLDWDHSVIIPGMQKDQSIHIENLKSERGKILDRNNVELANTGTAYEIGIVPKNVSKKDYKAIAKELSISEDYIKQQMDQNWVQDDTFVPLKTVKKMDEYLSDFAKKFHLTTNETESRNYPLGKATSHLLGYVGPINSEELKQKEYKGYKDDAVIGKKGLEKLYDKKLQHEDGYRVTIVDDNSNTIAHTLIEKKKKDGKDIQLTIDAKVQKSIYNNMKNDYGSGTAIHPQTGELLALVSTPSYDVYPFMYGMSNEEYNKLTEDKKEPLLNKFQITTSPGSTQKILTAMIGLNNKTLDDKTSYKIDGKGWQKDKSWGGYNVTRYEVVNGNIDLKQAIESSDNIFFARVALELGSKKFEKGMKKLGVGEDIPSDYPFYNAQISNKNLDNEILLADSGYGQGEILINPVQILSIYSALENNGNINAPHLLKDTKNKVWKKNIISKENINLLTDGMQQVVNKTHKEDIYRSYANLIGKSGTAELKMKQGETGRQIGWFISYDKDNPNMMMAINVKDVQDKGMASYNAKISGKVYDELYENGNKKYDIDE
# assay.method.text: Binding affinity against PBP2a receptor by competition analysis with [3H]benzylpenicillin using cell membrane fractions from the MRSA COL strain.
readout.type: IC50 (nM)
Could you give me the number in nM? Just the number is fine.

| chem.smiles | readout.type | recorded.value |
| --- | --- | --- |
| C[C@@H](O)[C@H]1C(=O)N2C(C(=O)O)=C(c3ccc4c(c3)-c3ccc(C[N+]56CC[N+](CC#N)(CC5)CC6)cc3C4=O)[C@H](C)[C@H]12.[Cl-].[Cl-] | IC50 | 464 |
| C[C@@H](O)[C@H]1C(=O)N2C(C(=O)O)=C(c3ccc4c(c3)-c3ccc(C[N+]56CC[N+](CC(=O)Nc7ccccc7)(CC5)CC6)cc3C4=O)C[C@H]12.[Cl-].[Cl-] | IC50 | 468 |
| C[C@@H](O)[C@H]1C(=O)N2C(C(=O)O)=C(c3ccc4c(c3)-c3ccc(C[N+]56CC[N+](CCO)(CC5)CC6)cc3C4=O)C[C@H]12.[Cl-].[Cl-] | IC50 | 276 |
| COc1ccccc1NC(=O)C[N+]12CC[N+](Cc3ccc4c(c3)C(=O)c3ccc(C5=C(C(=O)O)N6C(=O)[C@H]([C@@H](C)O)[C@H]6[C@H]5C)cc3-4)(CC1)CC2.[Cl-].[Cl-] | IC50 | 867 |

// next entry
(Q) Query IC50 on MecA (Staphylococcus aureus, UniProt Q7DHH4) for `C[C@@H](O)[C@H]1C(=O)N2C(C(=O)O)=C(c3ccc4c(c3)-c3ccc(C[N+]56CC[N+](CC(=O)Nc7ccc(CO)cc7)(CC5)CC6)cc3C4=O)[C@H](C)[C@H]12.[Cl-].[Cl-]`
(A) 2670

====

# Tested on: Mus musculus
# assay.method.text: In vivo antibacterial activity against MRSA 76 virginia strain at the dose ~1 *10e7 cfu in 5 percent hog gastric mucin along with antibiotic by sc administration at 0 and +4 hrs in mice
# Assay type: functional
readout.type: MIC (mg/L)
Could you give me the number in mg/L? Just the number is fine.

These recorded examples may help you get a feel for the data.
| compound | recorded.value |
| --- | --- |
| C[C@@H](O)[C@H]1C(=O)N2C(C(=O)[O-])=C(c3ccc4c(c3)-c3ccc(C[n+]5ccn(C)c5)cc3C4=O)C[C@H]12 | 1 |
| C[C@@H](O)[C@H]1C(=O)N2C(C(=O)O)=C(SCCNC=N)C[C@H]12 [IMIPENEM ANHYDROUS] | 64 |
| CN[C@H](CC(C)C)C(=O)N[C@H]1C(=O)N[C@@H](CC(N)=O)C(=O)N[C@H]2C(=O)N[C@H]3C(=O)N[C@H](C(=O)N[C@H](C(=O)O)c4cc(O)cc(O)c4-c4cc3ccc4O)[C@H](O)c3ccc(c(Cl)c3)Oc3cc2cc(c3O[C@@H]2O[C@H](CO)[C@@H](O)[C@H](O)[C@H]2O[C@H]2C[C@](C)(N)[C@H](O)[C@H](C)O2)Oc2ccc(cc2Cl)[C@H]1O | 1 |

(Q) Which MIC value is on record for `C[C@@H](O)[C@H]1C(=O)N2C(C(=O)[O-])=C(c3ccc4c(c3)-c3ccc(C[N+]56CC[N+](CC(N)=O)(CC5)CC6)cc3C4=O)[C@H](C)[C@H]12.[Cl-]` ?
(A) 2

(Q) Can you handle `C[C@@H](O)[C@H]1C(=O)N2C(C(=O)[O-])=C(c3ccc4c(c3)-c3ccc(C[N+]56CC[N+](CC(N)=O)(CC5)CC6)cc3C4=O)C[C@H]12.[Cl-]` next?
(A) 1

====

Entries annotated with measured CL renal
# assay.method.text: Renal clearance evaluated in Rhesus monkeys at the dose of 10 mg/kg by iv bolus injection
# Type: ADME, organism-based, Kidney
# Set-up: dose 10 mg/kg, route intravenous
# measurement.conditions: cercopithecidae, in vivo, read-out: Renal clearance
Could you give me the number in mL/min/kg? Just the number is fine.

These recorded examples may help you get a feel for the data.
| chem.smiles | recorded.value |
| --- | --- |
| C[C@@H](O)[C@H]1C(=O)N2C(C(=O)[O-])=C(c3ccc4c(c3)-c3ccc(C[N+]56CC[N+](CC(N)=O)(CC5)CC6)cc3C4=O)[C@H](C)[C@H]12.[Cl-] | 2.72 |
| C[C@@H](O)[C@H]1C(=O)N2C(C(=O)[O-])=C(c3ccc4c(c3)-c3ccc(C[n+]5ccn(C)c5)cc3C4=O)C[C@H]12 | 2.34 |

// next entry
(Q) Which CL renal value is on record for `C[C@@H](O)[C@H]1C(=O)N2C(C(=O)[O-])=C(c3ccc4c(c3)-c3ccc(C[N+]56CC[N+](CC(N)=O)(CC5)CC6)cc3C4=O)C[C@H]12.[Cl-]` ?
(A) 1.88

====

# measurement.target: MecA (Staphylococcus aureus, UniProt Q7DHH4)
# assay.method.text: Binding affinity against PBP2a receptor by competition analysis with [3H]benzylpenicillin using cell membrane fractions from the MRSA COL strain.
readout.type: IC50 (µM)
Could you give me the number in µM? Just the number is fine.

| chem.smiles | readout.type | recorded.value |
| --- | --- | --- |
| C[C@@H](O)[C@H]1C(=O)N2C(C(=O)O)=C(c3ccc4c(c3)-c3ccc(C[N+]56CC[N+](CC(=O)Nc7cccc(CO)c7)(CC5)CC6)cc3C4=O)[C@H](C)[C@H]12.[Cl-].[Cl-] | IC50 | 1.6 |
| CC[N+]12CC[N+](Cc3ccc4c(c3)C(=O)c3ccc(C5=C(C(=O)O)N6C(=O)[C@H]([C@@H](C)O)[C@H]6C5)cc3-4)(CC1)CC2.[Cl-].[Cl-] | IC50 | 0.416 |

// next entry
(Q) Which IC50 value is on record for `C[C@@H](O)[C@H]1C(=O)N2C(C(=O)[O-])=C(c3ccc4c(c3)-c3ccc(C[n+]5ccn(C)c5)cc3C4=O)C[C@H]12` ?
(A) 1.06

====

# System: Staphylococcus sp.
# assay.method.text: Antibacterial activity against methicillin-resistant coagulase negative Staphylococci (MRCNS)
# Assay type: functional
readout.type: MIC90 (µg/mL)
Could you give me the number in µg/mL? Just the number is fine.

| chem.smiles | MIC90 [µg/mL] |
| --- | --- |
| C[C@@H](O)[C@H]1C(=O)N2C(C(=O)O)=C(c3ccc4c(c3)-c3ccc(C[N+]56CC[N+](CC(=O)NCc7ccccc7)(CC5)CC6)cc3C4=O)[C@H](C)[C@H]12.[Cl-].[Cl-] | 4 |

(Q) Which MIC90 value is on record for `CCCNC(=O)C[N+]12CC[N+](Cc3ccc4c(c3)C(=O)c3ccc(C5=C(C(=O)O)N6C(=O)[C@H]([C@@H](C)O)[C@H]6[C@H]5C)cc3-4)(CC1)CC2.[Cl-].[Cl-]` ?
(A) 8

(Q) Can you handle `C[C@@H](O)[C@H]1C(=O)N2C(C(=O)O)=C(c3ccc4c(c3)-c3ccc(C[N+]56CC[N+](CC(=O)Nc7cccc(CO)c7)(CC5)CC6)cc3C4=O)[C@H](C)[C@H]12.[Cl-].[Cl-]` next?
(A) 4

(Q) Can you handle `C[C@@H](O)[C@H]1C(=O)N2C(C(=O)O)=C(c3ccc4c(c3)-c3ccc(C[N+]56CC[N+](CC(=O)Nc7cccc(C(N)=O)c7)(CC5)CC6)cc3C4=O)[C@H](C)[C@H]12.[Cl-].[Cl-]` next?
(A) 2

(Q) Can you handle `CCC[N+]12CC[N+](Cc3ccc4c(c3)C(=O)c3ccc(C5=C(C(=O)O)N6C(=O)[C@H]([C@@H](C)O)[C@H]6C5)cc3-4)(CC1)CC2.[Cl-].[Cl-]` next?
(A) 4

(Q) Can you handle `CNC(=O)C[N+]12CC[N+](Cc3ccc4c(c3)C(=O)c3ccc(C5=C(C(=O)O)N6C(=O)[C@H]([C@@H](C)O)[C@H]6[C@H]5C)cc3-4)(CC1)CC2.[Cl-].[Cl-]` next?
(A) 8
